The values you see were collected from ChEMBL document CHEMBL1201862.

GI50 values for the compounds below.
Tested on: SNB-19
TEST METHOD NOTES: NCI tumour cell line growth inhibition, 48 h
The source made the active and inactive calls. Cut-off read from the data, not from the text of the source: active = GI50 up to about 1.1 µM and inactive = higher.

Q. Form field: reported GI50 of `CC(=O)N(O)[C@@H]1CC[C@H](n2cnc3c(N)ncnc32)C1`
A. > 100 µM (inactive)

====

Tested on: UACC-257
TEST METHOD NOTES: NCI tumour cell line growth inhibition, 48 h
Active and inactive are the calls of the source. No stated cut-off is given here; in the data, active = GI50 up to about 1.1 µM and inactive = higher.
Reply using exactly one outcome from YES for active, NO for inactive

Answered cases to consult:
COC1=C(OC)C(O)(c2ccccc2)C1=O (stereo not given)    NO
COc1ccccc1C1c2cc3c(cc2OC2(OC)COC(=O)C12)OCO3 (stereo not given)    NO
CCCCNC(=S)OCCC(C)CCCC(C)C (stereo not given)    NO
Cc1cccc(C2NC(=O)c3ccccc3N2)c1 (stereo not given)    NO
COC(=O)C1Cc2ccc(C)cc2C1=O (stereo not given)    NO
Cc1cc(O)nc(NNC(C#N)c2cccc(O)c2)n1 (stereo not given)    NO
O=C(Nc1ccccc1)N(C1=NCC(CI)S1)c1ccc(F)c(F)c1 (stereo not given)    NO
COc1ccccc1NC(=S)Nc1cccc(C)n1    NO

Q. Which outcome was assigned to CC(C)=CC(=O)OC1C2C(C)C(=O)OC2C(O)C(C)C2C=CC(=O)C21C (stereo not given) in this test?
A. NO

Q. Which outcome was assigned to CC(C)(C)[Si](C)(C)OCC1OC(n2cnc3c(N)ncnc32)C2OC(=S)OC12 (stereo not given) in this test?
A. NO

Q. Which outcome was assigned to O=C(O)C(CS)Nc1c2ccccc2nc2ccccc12 (stereo not given) in this test?
A. NO

Q. Which outcome was assigned to CN1N=C(c2ccncc2)OC1c1ccc(C(F)(F)F)cc1 (stereo not given) in this test?
A. NO

Q. Which outcome was assigned to C=C(NC(=O)C(=C)NC(=O)c1csc(C2=NC3c4csc(n4)C4NC(=O)c5csc(n5)C(C(C)(O)C(C)O)NC(=O)C5CSC(=N5)/C(=C/C)NC(=O)C(C(C)O)NC(=O)c5csc(n5)C3(CC2)NC(=O)C(C)NC(=O)C(=C)NC(=O)C(=C)NC(=O)C(C(C)C)NC2C=Cc3c(C(C)O)cc(nc3C2O)C(=O)OC4C)n1)C(N)=O (stereo not given) in this test?
A. NO

Q. Which outcome was assigned to `COc1ccc(/C=N/NC(=O)c2ccc(O)c(CN(C)C)c2)cc1` in this test?
A. NO

Q. Which outcome was assigned to `CCOC(=O)c1ccc(C(=O)/C(C#N)=C2\CCCN2)[nH]1` in this test?
A. NO

Q. Which outcome was assigned to CC(=O)NC1C(OCc2ccccc2)OC(CO)C(O)C1OCC(=O)NC(C)C(=O)NC(CCC(=O)NCCCCCNc1c2ccccc2nc2cccc([N+](=O)[O-])c12)C(N)=O (stereo not given) in this test?
A. YES
